Item-by-item account of IC50 at 1 h
ASSAY_PROCEDURE: Cytotoxicity against HK-2 cells assessed as inhibition of cell growth incubated for 1 hr by MTT assay
Assay type: toxicity, cell-based
STATED_CONDITIONS: human
Residues, ends and D or L forms follow the SMILES beside them.

{"MOLECULE": "CC(C)C[C@H](NC(=O)[C@H](CCCCN)NC(=O)[C@H](CCCCN)NC(=O)[C@H](CC(C)C)NC(=O)[C@H](CC(C)C)NC(=O)[C@H](CCCCN)NC(=O)[C@H](CCCCN)NC(=O)[C@H](CC(C)C)NC(=O)[C@H](CC(C)C)NC(=O)[C@H](CCCCN)NC(=O)[C@H](CCCCN)NC(=O)[C@H](CC(C)C)NC(=O)[C@@H](N)CC(C)C)C(=O)N[C@@H](CC(=O)O)C(N)=O (H-LLKKLLKKLLKKLD-NH2)", "UNITS_OF_MEASURE": "µM", "IC50 at 1 h": 50.3}
{"MOLECULE": "CC(C)C[C@H](NC(=O)[C@H](CC(C)C)NC(=O)[C@H](CCCCN)NC(=O)[C@H](CCCCN)NC(=O)[C@H](CC(C)C)NC(=O)[C@H](CC(C)C)NC(=O)[C@H](CCCCN)NC(=O)[C@H](CCCCN)NC(=O)[C@H](CC(C)C)NC(=O)[C@H](CC(C)C)NC(=O)[C@@H](N)CCCCN)C(=O)N[C@@H](CCCCN)C(N)=O (H-KLLKKLLKKLLK-NH2)", "UNITS_OF_MEASURE": "µM", "IC50 at 1 h": 82.6}
{"MOLECULE": "CC(C)C[C@H](NC(=O)[C@H](CCC(=O)O)NC(=O)[C@H](CCCCN)NC(=O)[C@H](CCCCN)NC(=O)[C@H](CC(C)C)NC(=O)[C@H](CC(C)C)NC(=O)[C@H](CCCCN)NC(=O)[C@H](CCCCN)NC(=O)[C@H](CC(C)C)NC(=O)[C@H](CC(C)C)NC(=O)[C@H](CCCCN)NC(=O)[C@H](CCCCN)NC(=O)[C@H](CC(C)C)NC(=O)[C@@H](N)CC(C)C)C(N)=O (H-LLKKLLKKLLKKEL-NH2)", "UNITS_OF_MEASURE": "µM", "IC50 at 1 h": 73}
